Some compounds, each annotated with its measured IC50.
# target.under.test: Tubulin
# protocol.notes: Inhibition of tubulin polymerization
Number only, in nM; omit the unit.

Check out these entries, answers already filled in.
[
  {
    "smiles.entry": "COc1ccc(-c2snnc2-c2cc(OC)c(OC)c(OC)c2)cc1",
    "target.under.test": "Tubulin",
    "unit.descriptor": "nM",
    "IC50": 860
  },
  {
    "smiles.entry": "COc1ccc(-c2snnc2-c2cc(OC)c(OC)c(OC)c2)cc1O",
    "target.under.test": "Tubulin",
    "unit.descriptor": "nM",
    "IC50": 700
  },
  {
    "smiles.entry": "COc1ccc(-c2nnsc2-c2cc(OC)c(OC)c(OC)c2)cc1O",
    "target.under.test": "Tubulin",
    "unit.descriptor": "nM",
    "IC50": 860
  },
  {
    "smiles.entry": "COc1ccc(-c2snnc2-c2cc(OC)c(OC)c(OC)c2)cc1N",
    "target.under.test": "Tubulin",
    "unit.descriptor": "nM",
    "IC50": 680
  },
  {
    "smiles.entry": "COc1ccc(-c2snnc2-c2cc(OC)c(OC)c(OC)c2)cc1[N+](=O)[O-]",
    "target.under.test": "Tubulin",
    "unit.descriptor": "nM",
    "IC50": 2130
  }
]

Please turn your attention to the following entry.
Query: Tell me the measured IC50 of COc1ccc(-c2snnc2-c2cc(OC)c(OC)c(OC)c2)cc1OC , please.
Result: 720

====

Parameter IC50: see the listing below.
# Test system: HL-60
# protocol.notes: Antiproliferative activity against human HL60 cells
# Assay type: functional, cell-based
Kindly provide the numeric value in nM only, without the unit symbol.

[
  {
    "smiles.entry": "COc1ccc(-c2snnc2-c2cc(OC)c(OC)c(OC)c2)cc1[N+](=O)[O-]",
    "endpoint.name": "IC50",
    "endpoint.result": 13.4
  },
  {
    "smiles.entry": "COc1ccc(-c2nnsc2-c2cc(OC)c(OC)c(OC)c2)cc1O",
    "endpoint.name": "IC50",
    "endpoint.result": 40.9
  }
]

Now for another entry.
Query: Record request: IC50 value, item COc1cc(-c2nnsc2-c2ccc3c(c2)OCO3)cc(OC)c1OC
Result: 50.2

====

# System: HL-60
# protocol.notes: Antiproliferative activity against human HL60 cells
# Type: functional, cell-based
Here the recorded pIC50 is given for each entry.
// pIC50: -log10(molar conc.)

Query: Need pIC50 of COc1ccc(-c2snnc2-c2cc(OC)c(OC)c(OC)c2)cc1O , thanks.
Result: 8.82

Query: Now consider COc1ccc(/C=C\c2cc(OC)c(OC)c(OC)c2)cc1O [COMBRETASTATIN A4] and answer again.
Result: 8.72

Query: Ok, now COc1ccc(-c2snnc2-c2cc(OC)c(OC)c(OC)c2)cc1OC
Result: 7.22

Query: Now consider COc1ccc(-c2snnc2-c2cc(OC)c(OC)c(OC)c2)cc1 and answer again.
Result: 7.84

====

# System: HL-60
# protocol.notes: Antiproliferative activity against human HL60 cells
# Assay type: functional, cell-based
pIC50: −log10 of the molar value.
endpoint.name: pIC50

[
  {
    "smiles.entry": "COc1cc(-c2snnc2-c2ccc(Cl)cc2)cc(OC)c1OC",
    "endpoint.result": "< 6.00"
  }
]

Query: Missing value: pIC50, HL-60, entry COc1ccc(-c2nnsc2-c2cc(OC)c(OC)c(OC)c2)cc1OC . Fill in?
Result: < 6.00
